Catalogue of compounds with associated pEC50
# System: RS4;11 cells
# assay_procedure: RS4;11 cell viability assay (CellTiter Glo);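 also: acute lymphoblastic leukemia line RS4,11, EC50 derived from percentage of viable cells after treatment relative to untreated controls, cell killing taken as a measure of Bcl-2 inhibition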
# Format: cell-based, human
# condition_description: Homo sapiens, RS4-11, 48 h, 50,000 cells per well, 10% human serum, 48 hours; read-out: RS4; 11 EC50 Values
Just so you know, pEC50 here is -log10 of the concentration in molar units; reply with that number alone.

Notebook: CC(=O)N1CC[C@@H](Nc2ccc(S(=O)(=O)NC(=O)c3ccc(N4CCN(CC5=C(c6ccc(Cl)cc6)CC(C)(C)CC5)CC4)cc3Oc3cnc4[nH]ccc4c3)cc2[N+](=O)[O-])C1 , pEC50 read as 7.58

Notebook: CC1(C)CCC(CN2CCN(c3ccc(C(=O)NS(=O)(=O)c4ccc(OC[C@H]5COCCO5)c([N+](=O)[O-])c4)c(Oc4cnc5[nH]ccc5c4)c3)CC2)=C(c2ccc(Cl)cc2)C1 , pEC50 read as 7.82

Notebook: CC1(C)CCC(CN2CCN(c3ccc(C(=O)NS(=O)(=O)c4ccc(N[C@@H]5CC[C@H](N6CCOCC6)C5)c([N+](=O)[O-])c4)c(Oc4cnc5[nH]ccc5c4)c3)CC2)=C(c2ccc(Cl)cc2)C1 , pEC50 read as 7.69

Notebook: CC1(C)CCC(CN2CCN(c3ccc(C(=O)NS(=O)(=O)c4cnc(OC[C@H]5CC[C@H](O)CC5)c(Cl)c4)c(Oc4cnc5[nH]ccc5c4)c3)CC2)=C(c2ccc(Cl)cc2)C1 , pEC50 read as 7.15

Notebook: CO[C@H]1CC[C@H](COc2ncc(S(=O)(=O)NC(=O)c3ccc(N4CCN(CC5=C(c6ccc(Cl)cc6)CC(C)(C)CC5)CC4)cc3Oc3cnc4[nH]ccc4c3)cc2Cl)CC1 , pEC50 read as 7.22

Notebook: CC1(C)CCC(CN2CCN(c3ccc(C(=O)NS(=O)(=O)c4ccc(N[C@H]5CC[C@H](N(CC6CC6)CC6CC6)CC5)c([N+](=O)[O-])c4)c(Oc4cnc5[nH]ccc5c4)c3)CC2)=C(c2ccc(Cl)cc2)C1 , pEC50 read as 9.60

Notebook: CC1(C)CCC(CN2CCN(c3ccc(C(=O)NS(=O)(=O)c4ccc(NC5CCN(CC(F)(F)F)CC5)c([N+](=O)[O-])c4)c(Oc4cnc5[nH]ccc5c4)c3)CC2)=C(c2ccc(Cl)cc2)C1 , pEC50 read as 6.71

Notebook: CC1(C)CCC(CN2CCN(c3ccc(C(=O)NS(=O)(=O)c4ccc(OCC5CCOCC5)c(C#N)c4)c(Oc4cnc5[nH]ccc5c4)c3)CC2)=C(c2ccc(Cl)cc2)C1 , pEC50 read as 6.79

Notebook: CC1(C)CCC(CN2CCN(c3ccc(C(=O)NS(=O)(=O)c4ccc(NC[C@H]5CN(C6CC6)CCO5)c([N+](=O)[O-])c4)c(Oc4cnc5[nH]ccc5c4)c3)CC2)=C(c2ccc(Cl)cc2)C1 , pEC50 read as 8.57

Notebook: CN(C)CC(=O)N1CCC(F)(COc2ncc(S(=O)(=O)NC(=O)c3ccc(N4CCN(CC5=C(c6ccc(Cl)cc6)CC(C)(C)CC5)CC4)cc3Oc3cnc4[nH]ccc4c3)cc2Cl)CC1 , pEC50 read as 8.60

----------
Catalogue of molecules with associated Ki
# target: Bcl-2 (Homo sapiens (Human), UniProt P10415)
# Sequence (P10415 whole entry): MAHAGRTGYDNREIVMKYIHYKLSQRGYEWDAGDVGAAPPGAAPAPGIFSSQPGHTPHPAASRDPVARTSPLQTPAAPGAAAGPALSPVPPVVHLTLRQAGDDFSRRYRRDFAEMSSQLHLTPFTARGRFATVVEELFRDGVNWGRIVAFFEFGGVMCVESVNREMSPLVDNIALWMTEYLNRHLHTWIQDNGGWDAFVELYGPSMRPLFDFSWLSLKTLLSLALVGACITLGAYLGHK
# assay_procedure: Time Resolved-Fluorescence Resonance Energy Transfer (TR-FRET) Bcl-2 binding assay
# condition_description: GST-Bcl-2 1 nM, F-Bak peptide probe 100 nM, Tb-anti-GST 1 nM; < means below limit of detection; read-out: TR-FRET Bcl-2 Binding Ki

Previously resolved entries follow.
>>> recorded_value("CC1(C)CCC(CN2CCN(c3ccc(C(=O)NS(=O)(=O)c4ccc(OCC5CCN(C6COC6)CC5)c([N+](=O)[O-])c4)c(Oc4cnc5[nH]ccc5c4)c3)CC2)=C(c2ccc(Cl)cc2)C1")
"< 0.01 nM"
>>> recorded_value("CC1(C)CC(c2ccc(Cl)cc2)=C(CN2CCN(c3ccc(C(=O)NS(=O)(=O)c4ccc(NCC5CCOCC5)c([N+](=O)[O-])c4)c(Oc4cnc5[nH]ccc5c4)c3)CC2)CO1")
"< 0.01 nM"
>>> recorded_value("CC1(C)CCC(CN2CCN(c3ccc(C(=O)NS(=O)(=O)c4ccc(OC[C@H]5CC[C@H](O)CC5)c([N+](=O)[O-])c4)c(Oc4cnc5[nH]ccc5c4)c3)CC2)=C(c2ccc(Cl)cc2)C1 [Example 196]")
"< 0.01 nM"
>>> recorded_value("CC1(C)CCC(CN2CCN(c3ccc(C(=O)NS(=O)(=O)c4ccc(OC[C@H]5CCN(C6COC6)C5)c([N+](=O)[O-])c4)c(Oc4cnc5[nH]ccc5c4)c3)CC2)=C(c2ccc(Cl)cc2)C1")
"< 0.01 nM"

Moving on to another molecule below.
Notebook: CC1(C)CCC(CN2CCN(c3ccc(C(=O)NS(=O)(=O)c4ccc(OC[C@H]5CC[C@H](O)CC5)c([N+](=O)[O-])c4)c(Oc4cnc5[nH]ccc5c4)c3)CC2)=C(c2ccc(Cl)cc2)C1 [Example 120] , Ki read as < 0.01 nM

These measurements were taken from patent US20240043404A1.
